- experimental-target: human ANO1(abc) (Homo sapiens, UniProt Q5XXA6, DEL476-501)
- Sequence (Q5XXA6 with tags, fused parts or gaps isoform Q5XXA6-5 DEL539-564): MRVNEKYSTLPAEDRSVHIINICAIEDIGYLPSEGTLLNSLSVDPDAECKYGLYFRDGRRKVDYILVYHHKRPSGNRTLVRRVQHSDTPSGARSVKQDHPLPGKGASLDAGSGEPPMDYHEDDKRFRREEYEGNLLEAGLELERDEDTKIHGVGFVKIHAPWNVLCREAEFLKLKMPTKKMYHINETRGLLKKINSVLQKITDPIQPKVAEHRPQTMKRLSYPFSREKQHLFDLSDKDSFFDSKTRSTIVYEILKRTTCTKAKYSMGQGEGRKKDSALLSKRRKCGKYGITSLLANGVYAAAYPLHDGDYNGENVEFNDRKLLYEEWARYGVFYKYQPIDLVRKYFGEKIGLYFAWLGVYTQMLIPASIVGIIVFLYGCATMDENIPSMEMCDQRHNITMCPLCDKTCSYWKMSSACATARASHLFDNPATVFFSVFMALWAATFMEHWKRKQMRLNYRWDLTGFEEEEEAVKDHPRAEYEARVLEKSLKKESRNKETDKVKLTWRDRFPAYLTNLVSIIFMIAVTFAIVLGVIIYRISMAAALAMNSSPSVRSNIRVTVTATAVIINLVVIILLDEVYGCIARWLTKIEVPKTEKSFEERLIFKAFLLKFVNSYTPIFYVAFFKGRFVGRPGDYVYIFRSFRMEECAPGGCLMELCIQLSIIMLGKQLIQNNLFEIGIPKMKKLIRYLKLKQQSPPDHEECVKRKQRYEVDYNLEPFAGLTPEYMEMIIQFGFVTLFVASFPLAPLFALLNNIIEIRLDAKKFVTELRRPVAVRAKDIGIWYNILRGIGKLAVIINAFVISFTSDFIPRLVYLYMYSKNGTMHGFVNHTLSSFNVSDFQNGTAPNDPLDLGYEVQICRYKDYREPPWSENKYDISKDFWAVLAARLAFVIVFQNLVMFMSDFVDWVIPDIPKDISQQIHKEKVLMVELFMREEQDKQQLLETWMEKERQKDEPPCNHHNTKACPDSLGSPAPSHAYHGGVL
- assay-explanation: YFP fluorescence plate reader assay of iodide influx in ANO1 expressing FRT cells
- particulars: read-out: IC50 of ANO1 inhibition
Note to self: IC50 under 500 nM means Criterion met, ties and anything higher get Criterion not met.

[
  {
    "compound-smiles": "COc1ccccc1/C=N/NC(=O)COc1ccc(I)cc1",
    "category": "Criterion met"
  },
  {
    "compound-smiles": "COc1ccc(OC)c(/C=N/NC(=O)COc2ccc(Cl)cc2C)c1",
    "category": "Criterion met"
  },
  {
    "compound-smiles": "CCOc1ccc(Br)cc1/C=N/NC(=O)COc1ccc(Cl)cc1Cl",
    "category": "Criterion met"
  }
]

**Query** Item `Cc1cc(Cl)ccc1OCC(=O)N/N=C/c1ccc(O)cc1O` : IC50 beneath 500 nM, strictly?
**Result** Criterion not met

**Query** Item `Cc1cc(Cl)ccc1OCC(=O)N/N=C/c1ccc(O)cc1` : IC50 beneath 500 nM, strictly?
**Result** Criterion met

**Query** Item `CCOc1cc(I)cc(/C=N/NC(=O)COc2cccc(C)c2C)c1O` : IC50 beneath 500 nM, strictly?
**Result** Criterion not met

**Query** Item `COc1ccccc1/C=N/NC(=O)COc1ccc(Br)cc1OC` : IC50 beneath 500 nM, strictly?
**Result** Criterion met

**Query** Item `Cc1cc(Cl)ccc1OCC(=O)N/N=C/c1ccccc1O` : IC50 beneath 500 nM, strictly?
**Result** Criterion not met

* * *

Could you please report measured IC50 for the items listed next?
- experimental-target: ANO1 (Homo sapiens, UniProt Q5XXA6, DEL476-501)
- Construct: expressed in transfected cells
- assay-explanation: Apical membrane current in ANO1 expressing FRT cells
- Type: cell-based
- particulars: apical membrane current, 20 min pretreatment, 100 μM ATP; read-out: IC50 of ATP-induced ANO1 activation
State the value with its unit after it.

[
  {
    "compound": "CCc1c(C)nc(SCC(=O)Nc2nc(-c3ccc(OC)cc3)cs2)[nH]c1=O [Ani T16Ainh-A01]",
    "IC50": "1390 nM"
  }
]

// below: IC50 requested for another compound
**Query** Using the record for COc1cc(Nc2ccc([N+](=O)[O-])cc2C(=O)O)cc2ccccc12 [MONNA] , report its IC50.
**Result** 1950 nM
